Answer each item with its documented phenotypically active.
# System: A549-TUBA1B-RELA
# assay-overview: phenotypically active (imaging signature differs from DMSO and reproducible) at any of 0.3-9 uM (binary (1 = active, 0 = inactive)); higher = active
# measurement-context: treatment time: 24 h

Hey, A549-TUBA1B-RELA data for CN1[C@@H](CC(=O)c2ccccc2)CCC[C@H]1C[C@H](O)c1ccccc1 [Lobeline alpha (-) hydrochoride] : phenotypically active came out at 0 (inactive)

Hey, A549-TUBA1B-RELA data for CN(C)CC(O)Cn1c2ccc(Br)cc2c2cc(Br)ccc21 (centres undefined) [Wiskostatin] : phenotypically active came out at 1 (active)

Hey, A549-TUBA1B-RELA data for Cc1cc2c(s1)Nc1ccccc1N=C2N1CCN(C)CC1 [Olanzapine] : phenotypically active came out at 0 (inactive)

Hey, A549-TUBA1B-RELA data for `Fc1ccc(-c2c3cccc(C(F)(F)F)c3nn2Cc2ccc(F)cc2Cl)cc1` : phenotypically active came out at 0 (inactive)

Hey, A549-TUBA1B-RELA data for CN1CCC(=C2c3ccccc3CC(=O)c3sccc32)CC1 [ketotifen] : phenotypically active came out at 1 (active)

Hey, A549-TUBA1B-RELA data for C=C1C(=O)O[C@@H]2[C@H]3O[C@]3(C)CCC=C(C)CC[C@@H]12 [Parthenolide] : phenotypically active came out at 1 (active)

Hey, A549-TUBA1B-RELA data for `CCOC(=O)c1ccc(N2NC(=O)/C(=C/c3ccc([N+](=O)[O-])o3)C2=O)cc1` : phenotypically active came out at 0 (inactive)

Hey, A549-TUBA1B-RELA data for `O=S(=O)(c1ccccc1)N(CC(F)(F)F)c1ccc(C(O)(C(F)(F)F)C(F)(F)F)cc1` : phenotypically active came out at 0 (inactive)

Hey, A549-TUBA1B-RELA data for CN1CC[C@]23c4ccccc4N[C@H]1[C@]21CCN(C)[C@H]3Nc2ccccc21 [Calycanthine] : phenotypically active came out at 0 (inactive)

Hey, A549-TUBA1B-RELA data for `Cn1cccc1/C=C1\C(=O)NC(=O)c2ccccc21` : phenotypically active came out at 0 (inactive)

Hey, A549-TUBA1B-RELA data for O=C(NC(CO)C(O)c1ccc([N+](=O)[O-])cc1)C(Cl)Cl (centres undefined) [Chloramphenicol] : phenotypically active came out at 0 (inactive)

Hey, A549-TUBA1B-RELA data for O=C1c2c(O)ccc(O)c2C(=O)c2c(NCCNCCO)ccc(NCCNCCO)c21 [mitoxantrone] : phenotypically active came out at 1 (active)

Hey, A549-TUBA1B-RELA data for `CCOC(=O)CCNc1cc(N2CCc3ccccc3CC2)nc(-c2cccnc2)n1` : phenotypically active came out at 0 (inactive)

Hey, A549-TUBA1B-RELA data for CC1(C)CCC(C)(C)c2cc(C(O)C(=O)Nc3ccc(C(=O)O)cc3F)ccc21 (centres undefined) : phenotypically active came out at 0 (inactive)

Hey, A549-TUBA1B-RELA data for `O=c1cc(N2CCOCC2)oc2c(-c3cccc4c3sc3ccccc34)cccc12` : phenotypically active came out at 1 (active)

Hey, A549-TUBA1B-RELA data for `CNC(=O)Nc1ccc(-c2nc(N3CC4CCC(C3)O4)c3cnn(C4CCC5(CC4)OCCO5)c3n2)cc1` : phenotypically active came out at 1 (active)

Hey, A549-TUBA1B-RELA data for `COc1cc2c(cc1NS(=O)(=O)c1ccc(Br)cc1C)n(C)c(=O)n2C` : phenotypically active came out at 0 (inactive)

Hey, A549-TUBA1B-RELA data for O=C(O)[C@H]1O[C@@H](Oc2cc3oc(-c4ccccc4)cc(=O)c3c(O)c2O)[C@H](O)[C@@H](O)[C@@H]1O [Baicalin] : phenotypically active came out at 0 (inactive)

Hey, A549-TUBA1B-RELA data for `O=C1c2ccccc2C(Cc2ccncc2)(Cc2ccncc2)c2ccccc21` : phenotypically active came out at 0 (inactive)
